# Tested on: SNB-75 CNS
# Assay Info: NCI-60 one-dose screen, 48 h (100 = growth as untreated, 0 = no growth, -100 = all killed)
# Condition Notes: 10 µM unless noted
Compounds without any hit were thinned out: in the full panel of roughly 83,000, 20% have a hit. The source made the active and inactive calls. Rule for the calls: active = growth percent below 10; inactive = the rest.
Test Readout: growth

compound=C=C(C)[C@@H]1CC[C@]2(C(=O)NCC#CCN3CCN(C)CC3)CC[C@]3(C)[C@H](CC[C@@H]4[C@@](C)(CCC#N)[C@H](C(=C)C)CC[C@]43C)[C@@H]12 test_readout=growth recorded_measurement="64.7% (inactive)"
compound=CCOC(=O)C1=NN(c2ccccc2)C(=O)/C1=C\N1C(=O)CC(=O)NC1=S test_readout=growth recorded_measurement="10.6% (inactive)"
compound=Clc1ccc(Sc2cnc(-c3ccccc3)o2)cc1 test_readout=growth recorded_measurement="92.6% (inactive)"
compound=COc1ccc2cc(-c3ccc(NC(C)=O)c(=O)o3)ccc2c1 test_readout=growth recorded_measurement="97.4% (inactive)"
compound=O=C(O)[C@@H]1c2ccccc2-c2ccccc2[C@H]1C(=O)O test_readout=growth recorded_measurement="93.3% (inactive)"
compound="Nc1nc(=S)c2ncn(C3OC(COP(=O)(O)O)C(O)C3O)c2[nH]1 (centres undefined)" test_readout=growth recorded_measurement="47.8% (inactive)"
compound="Nc1ncnc2c1N=C(c1ccc3c(c1)OCO3)CC(c1cccc(Nc3ccnc4cc(Cl)ccc34)c1)N2 (centres undefined)" test_readout=growth recorded_measurement="74.6% (inactive)"
compound=CCCCOC(=O)OCc1cc(=O)c(O)co1 test_readout=growth recorded_measurement="91.5% (inactive)"
compound=O=[N+]([O-])c1ccc(N/N=C(/C(=N/Nc2ccc([N+](=O)[O-])cc2)c2ccccc2)c2ccccc2)cc1 test_readout=growth recorded_measurement="90.3% (inactive)"
compound=N#Cc1cccc(-c2c(-c3ccc4ccccc4c3)oc3ccccc3c2=O)c1 test_readout=growth recorded_measurement="51.1% (inactive)"
compound=O=C1c2ccc3c4ccc5c6c(ccc(c7ccc(c2c37)C(=O)N1CCC[P+](c1ccccc1)(c1ccccc1)c1ccccc1)c64)C(=O)N(CCC[P+](c1ccccc1)(c1ccccc1)c1ccccc1)C5=O test_readout=growth recorded_measurement="131% (inactive)"
compound=Cc1nc(N2CCOCC2)sc1S(N)(=O)=O test_readout=growth recorded_measurement="-0.593% (active)"
compound=O=C(Cn1cc(CN2CCCCCC2)nn1)Nc1ccc2c(ccn2Cc2ccccc2)c1 test_readout=growth recorded_measurement="76.1% (inactive)"
compound=O=C1NCCC12CCN(c1c(Cl)cncc1-c1ccc(O)cc1)CC2 test_readout=growth recorded_measurement="112% (inactive)"
compound=CCNc1cc(-c2cccc(OC(F)(F)F)c2)nc2ccc(N3CCCC3)cc12 test_readout=growth recorded_measurement="82.3% (inactive)"
compound="COc1ccc(C(c2cc(OC)c(OC)c(OC)c2)N2CCN(c3ccccc3)CC2)cc1 (centres undefined)" test_readout=growth recorded_measurement="90.2% (inactive)"
compound=CO[C@]12C=C/C(=C(/C(=O)OCc3cccnc3)C(=O)CCCCCCCC[C@@]3(OC)C=C/C(=C(/C(=O)OCc4cccnc4)C(=O)CCCCCCCC1)O3)O2 test_readout=growth recorded_measurement="55% (inactive)"
compound=O=C1Nc2ccc(I)cc2C1=O test_readout=growth recorded_measurement="79.8% (inactive)"
compound=O=C(Nn1c2c(sc1=Nc1ccccc1)C(=O)c1ccccc1C2=O)c1cc2ccc1CCc1ccc(cc1)CC2 test_readout=growth recorded_measurement="36.3% (inactive)"
